- Tested on: HGGX2 (paediatric high-grade glioma line)
- Protocol description: area under dose-response curve of % growth inhibition (log2 RLU vs DMSO / staurosporine), 1e-11 to 1e-4 M (% x log10 M); higher = more growth inhibition
Recorded metric: area under dose-response curve

Below: 2 compounds and their reported area under dose-response curve.
[[record]]
compound = "Nc1ccc2ncnc(NCCc3ccc(Oc4ccccc4)cc3)c2c1 [EVP4593]"
target_or_system = "HGGX2"
test_value = 71.8

[[record]]
compound = "CCNC(=O)c1noc(-c2cc(C(C)C)c(O)cc2O)c1-c1ccc(CN2CCOCC2)cc1 [NVP-AUY922]"
target_or_system = "HGGX2"
test_value = 180


// area under dose-response curve value for CC(C(O)c1ccc(O)cc1)N1CCC(Cc2ccccc2)CC1 (stereo unspecified) [IFENPRODIL] : 8.88

// area under dose-response curve value for CN(C)C/C=C/C(=O)Nc1ccc(C(=O)Nc2cccc(Nc3ncc(Cl)c(-c4c[nH]c5ccccc45)n3)c2)cc1 [THZ1] : 349

// area under dose-response curve value for C[C@@]12OC(=O)[C@]1([C@@H](O)[C@@H]1C=CCCC1)NC(=O)[C@@H]2CCCl [MARIZOMIB] : 337

// area under dose-response curve value for C#Cc1cccc(Nc2ncnc3cc(OCCOC)c(OCCOC)cc23)c1 [ERLOTINIB] : 37.1

====

Here the recorded maximal growth inhibition is given for each entry.
- Tested on: DIPGX7 (H3.3 K27M diffuse intrinsic pontine glioma line)
- Protocol description: maximal growth inhibition (yFin) relative to DMSO / staurosporine; higher = more efficacious
Note: unit % is implicit; provide only the numeric part.

Below: 7 compounds and their reported maximal growth inhibition.
[[record]]
compound = "CC(C)(C)c1cnc(CSc2cnc(NC(=O)C3CCNCC3)s2)o1"
target_or_system = "DIPGX7"
recorded_metric = "maximal growth inhibition"
unit_of_measurement = "%"
test_value = 113

[[record]]
compound = "CC(C)c1cc(C(=O)N2Cc3ccc(CN4CCN(C)CC4)cc3C2)c(O)cc1O"
target_or_system = "DIPGX7"
recorded_metric = "maximal growth inhibition"
unit_of_measurement = "%"
test_value = 78.3

[[record]]
compound = "COC1=CC(c2cc3ccccc3[nH]2)=N/C1=C\\c1[nH]c(C)cc1C [OBATOCLAX]"
target_or_system = "DIPGX7"
recorded_metric = "maximal growth inhibition"
unit_of_measurement = "%"
test_value = 129

[[record]]
compound = "CCCCc1oc2ccc(NS(C)(=O)=O)cc2c1C(=O)c1ccc(OCCCN(CCCC)CCCC)cc1 [DRONEDARONE]"
target_or_system = "DIPGX7"
recorded_metric = "maximal growth inhibition"
unit_of_measurement = "%"
test_value = 120

[[record]]
compound = "CO[C@H]1C[C@@H]2CC[C@@H](C)[C@@](O)(O2)C(=O)C(=O)N2CCCC[C@H]2C(=O)O[C@H]([C@H](C)C[C@@H]2CC[C@@H](OCCO)[C@H](OC)C2)CC(=O)[C@H](C)/C=C(\\C)[C@@H](O)[C@@H](OC)C(=O)[C@H](C)C[C@H](C)/C=C/C=C/C=C/1C [EVEROLIMUS]"
target_or_system = "DIPGX7"
recorded_metric = "maximal growth inhibition"
unit_of_measurement = "%"
test_value = 98.8

[[record]]
compound = "O=C(c1ccc(Nc2nccc(-c3cc4ccccc4s3)n2)cc1)N1CCC(N2CCCC2)CC1 [IKK 16]"
target_or_system = "DIPGX7"
recorded_metric = "maximal growth inhibition"
unit_of_measurement = "%"
test_value = 108

[[record]]
compound = "COc1cc(F)ccc1-c1ncnc(Nc2cccc(CS(C)(=N)=O)c2)n1 (stereo not drawn)"
target_or_system = "DIPGX7"
recorded_metric = "maximal growth inhibition"
unit_of_measurement = "%"
test_value = 110


Shift focus to the following entry.
// maximal growth inhibition value for CC(=O)c1cc([N+](=O)[O-])c(Sc2ccc(F)cc2F)s1 : 117

Where these numbers come from: the supplement of paper PMC8253809
